Tested on: MOLT-13 (T-Lymphoblastic Leukemia)
Assay: combination Emax (second highest fraction inhibited in the dose matrix, 72 h); higher = more inhibition; extreme values may be limits of the assay
Entries annotated with measured combination Emax
A bare number is all that is needed in reply.

As a guide, the following entries are already answered.
compound | tested-system | experimental-readout | recorded-measurement
CC1(C)CCC(CN2CCN(c3ccc(C(=O)NS(=O)(=O)c4ccc(NCC5CCOCC5)c([N+](=O)[O-])c4)c(Oc4cnc5[nH]ccc5c4)c3)CC2)=C(c2ccc(Cl)cc2)C1 [Venetoclax] + C[C@@H]1COCCN1C2=NC(=NC(=C2)C3(CC3)[S@](=N)(=O)C)C4=C5C=CNC5=NC=C4 [AZD6738] (first compound max 1 µM, 7x7, partner max 10 µM) | MOLT-13 (T-Lymphoblastic Leukemia) | combination Emax | 1
CN(CCO)CC[C@H](CSc1ccccc1)Nc1ccc(S(=O)(=O)NC(=O)c2ccc(N3CCC([C@@H](O)c4ccccc4-c4ccc(Cl)cc4)CC3)cc2)cc1S(=O)(=O)C(F)(F)F [AZD4320] + C1CN(CCC1(C(=O)N[C@@H](CCO)C2=CC=C(C=C2)Cl)N)C3=NC=NC4=C3C=CN4 [Capivasertib] (first compound max 1 µM, 7x7, partner max 3 µM) | MOLT-13 (T-Lymphoblastic Leukemia) | combination Emax | 0.913

Next item in the queue.
# input # lookup: MOLT-13 (T-Lymphoblastic Leukemia) combination Emax, key = COc1cc2ncnc(Nc3ccc(F)c(Cl)c3)c2cc1OCCCN1CCOCC1 [Gefitinib] + CC(C)n1c(=O)n(C)c2cnc3cc(F)c(-c4ccc(OCCCN5CCCCC5)nc4)cc3c21 [AZD1390] (first compound max 10 µM, 7x7, partner max 0.3 µM)
# output 0.311
